Target: recombinant His-tagged human cyclin A2 (sequence 174-432) (human) (UniProt P20248)
Test: other fluorescence titration
*: point of attachment. X2 = 4‑((4-methylpiperazin-1-yl)methyl)benzoic acid, CN1CCN(Cc2ccc(C(=O)*)cc2)CC1
metric: pKd
Quick note: pKd means taking -log10 of the concentration in moles per liter.

QUERY: Which pKd is reported for this binder? X2-RLIF-NH2 [SCCP5921: 4-((4-methylpiperazin-1-yl)methyl)benzoic acid ligated to the p21 C-terminus, RLIF]
RESULT: 5.49
